Recorded values, source paper PMC12288454.

# TARGET OR SYSTEM: DgoR (BW WT DgoR) (Escherichia coli, UniProt P31460)
# Construct: full length (229 aa), C-terminal 6XHis tag, expressed from Ptrc in pRC10 in E. coli BL21(DE3), Co-NTA purified; dimer
# Sequence (P31460 whole entry): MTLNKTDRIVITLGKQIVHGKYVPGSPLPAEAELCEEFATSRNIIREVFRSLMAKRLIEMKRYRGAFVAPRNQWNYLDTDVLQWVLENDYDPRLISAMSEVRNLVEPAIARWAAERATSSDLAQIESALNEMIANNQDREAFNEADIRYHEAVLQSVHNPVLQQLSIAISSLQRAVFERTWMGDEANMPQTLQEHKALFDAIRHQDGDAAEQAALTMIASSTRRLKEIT
# ASSAY SUMMARY: label-free microscale thermophoresis
OBSERVED PROPERTY: Kd (µM)
Response body: numeric value in µM, unit text excluded.

# Kd lookup, item O=C(O)[C@H](O)[C@@H](O)[C@@H](O)[C@H](O)CO [D-galactonate]
10.3

---

# TARGET OR SYSTEM: DgoR (BW WT DgoR) (Escherichia coli, UniProt P31460, R71C)
# Construct: full length (229 aa), C-terminal 6XHis tag, expressed from Ptrc in pRC10 in E. coli BL21(DE3), Co-NTA purified; dimer
# Sequence (P31460 whole entry R71C): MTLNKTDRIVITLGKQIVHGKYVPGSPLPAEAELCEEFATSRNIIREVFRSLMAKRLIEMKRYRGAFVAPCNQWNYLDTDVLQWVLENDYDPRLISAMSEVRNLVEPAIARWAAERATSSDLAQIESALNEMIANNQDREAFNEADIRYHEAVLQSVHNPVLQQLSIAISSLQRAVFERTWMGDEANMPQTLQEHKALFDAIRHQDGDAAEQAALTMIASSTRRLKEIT
# ASSAY SUMMARY: label-free microscale thermophoresis
OBSERVED PROPERTY: pKd
Hey, just a heads up that pKd is the negative log base 10 of the concentration in molar.

Which pKd reading was recorded for the compound O=C(O)[C@H](O)[C@@H](O)[C@@H](O)[C@H](O)CO [D-galactonate] ?
4.48
